- System: Spodoptera frugiperda
- assay-protocol: Insecticidal activity against first-instar larval-stage of Spodoptera frugiperda (fall armyworm) strain corn in compound-pretreated corn leaves assessed as mortality rate at 2000 mg/kg
- Type: functional
measure-name: log10LT50
Keep the answer to the number alone.

What the record says about O=c1cc(-c2ccccc2)oc2ccccc12 [FLAVONE] : log10LT50 is 1.709

What the record says about O=C1CC(c2ccccc2)Oc2ccccc21 (stereo not drawn) [FLAVANONE] : log10LT50 is 1.656

What the record says about O=c1cc(-c2ccccc2)oc2cc(Br)ccc12 [7-BROMOFLAVONE] : log10LT50 is 1.953

###

- Tested on: Spodoptera frugiperda
- assay-protocol: Insecticidal activity against first-instar larval-stage of Spodoptera frugiperda (fall armyworm) strain corn in compound-pretreated corn leaves assessed as mortality rate at 2000 mg/kg
- Format: functional
measure-name: log10LT50
Keep the answer to the number alone.

O=c1cc(-c2ccccc2)oc2cc(Cl)ccc12	1.467
O=c1ccoc2ccccc12	1.744
COc1ccc2c(=O)cc(-c3ccccc3)oc2c1	2.058
Cc1ccc2c(=O)cc(-c3ccccc3)oc2c1	2.023
O=c1cc(-c2ccccc2)oc2cc(O)ccc12 [7-HYDROXYFLAVONE]	2.029
O=c1c2ccccc2oc2ccccc12	1.731
Cc1ccc2oc(-c3ccccc3)cc(=O)c2c1	1.968
O=c1cc(-c2ccccc2)oc2ccc(Br)cc12	1.642
O=c1cc(-c2ccccc2)oc2cc(F)ccc12	1.805

Summary: O=c1cc(-c2ccccc2)oc2ccc(Cl)cc12 , Spodoptera frugiperda, log10LT50 = 1.727

The measurements presented in this section are drawn from ChEMBL document CHEMBL3046128.
